Experiment: Cytotoxicity, resazurin microplate assay
Type: cell-based
Settings: human, MCF-7 cells (human breast cancer, ATCC HTC-22)
VALUE_KIND: IC50 at 3 d

COMPOUND | VALUE_OBSERVED
COc1cc(O)c2c(=O)c3c(O)cc(C)cc3oc2c1O | > 174 µM
COc1cccc2c1C(=O)c1c(O)c3c(c(O)c1C2=O)C[C@@](O)(C(=O)CO)C[C@@H]3O[C@H]1C[C@H](N)[C@H](O)[C@H](C)O1 [Doxorubicin, reference compound] | 11.9 µM
COc1cc2oc3cc(C)cc(O)c3c(=O)c2c(C)c1O | > 175 µM
COc1cc(O)c2c(=O)c3c(O)cc(C)cc3oc2c1OC | > 165 µM
O=C(O)CCC(=O)OCCc1ccccc1 | > 225 µM
CCC(=O)c1cc(OC)cc2oc3cc(C)cc(O)c3c(=O)c12 | 42.5 µM

----------
System: C. acutatum (BCC 58146)
Experiment: microbe, parasite or virus in culture
Format: cell-based
Settings: Colletotrichum acutatum, read-out: Anti-phytopathogenic fungal (MIC, μM) C. acutatum
Parameter MIC: see the listing below.

CHEMICAL_STRING | MIC
COc1cc(O)c2c(=O)c3c(O)cc(C)cc3oc2c1O | > 174 µM
CCC(=O)c1cc(OC)cc2oc3cc(C)cc(O)c3c(=O)c12 | > 160 µM
O=C(O)CCC(=O)OCCc1ccccc1 | > 225 µM

----------
Assay: Cytotoxicity, resazurin microplate assay
Assay type: cell-based
Details: human, NCI-H187 cells (human small-cell lung cancer, ATCC CRL-5804)

MOLECULE | IC50 at 5 d
COc1cc(O)c2c(=O)c3c(O)cc(C)cc3oc2c1OC [Compound 2] | > 165 µM
COc1cccc2c1C(=O)c1c(O)c3c(c(O)c1C2=O)C[C@@](O)(C(=O)CO)C[C@@H]3O[C@H]1C[C@H](N)[C@H](O)[C@H](C)O1 [Doxorubicin, reference compound] | 0.2 µM
COc1cc2oc3cc(C)cc(O)c3c(=O)c2c(C)c1O [Compound 3] | > 175 µM
CCC(=O)c1cc(OC)cc2oc3cc(C)cc(O)c3c(=O)c12 [Compound 4] | > 160 µM
O=C(O)CCC(=O)OCCc1ccccc1 [Compound 7, 4-oxo-4-phenethoxybutanoic acid] | > 225 µM
COc1cc(O)c2c(=O)c3c(O)cc(C)cc3oc2c1O [Compound 1] | 19 µM
